Recorded values, source the OligoGym collection.

Target: MRFAP1
Assay: reporter assay of Huesken 2005
Conditions: siRNA
Oligonucleotides are written 5' to 3', each unit as a sugar letter and its base; * is a phosphorothioate linkage, no mark a phosphodiester; rarer units and linkages stand in square brackets, end groups in braces. Plain capitals give the bases only. d = 2'-deoxy (DNA); r = 2'-OH (RNA)
Could you please report measured normalised inhibition (eCFP-eYFP dual reporter) for the items listed next?
The response must be a number in % with no trailing unit.

Please look up its normalised inhibition (eCFP-eYFP dual reporter): sense rGrCrGrCrCrCrGrUrGrCrGrCrArArCrCrGrGrGdTdT / antisense rCrCrCrGrGrUrUrGrCrGrCrArCrGrGrGrCrGrCdGdC 55.3

Please look up its normalised inhibition (eCFP-eYFP dual reporter): sense rArGrUrUrUrCrUrGrCrUrGrCrCrCrGrUrCrArUdTdT / antisense rArUrGrArCrGrGrGrCrArGrCrArGrArArArCrUdGdC 66.2

Please look up its normalised inhibition (eCFP-eYFP dual reporter): sense rGrGrUrArUrCrCrCrCrArUrArUrArUrUrUrGrAdTdT / antisense rUrCrArArArUrArUrArUrGrGrGrGrArUrArCrCdAdA 76.3

====

Biological target: P2RX3
Experiment: reporter assay of Huesken 2005
Conditions: siRNA
Oligonucleotides are written 5' to 3', each unit as a sugar letter and its base; * is a phosphorothioate linkage, no mark a phosphodiester; rarer units and linkages stand in square brackets, end groups in braces. Plain capitals give the bases only. d = 2'-deoxy (DNA); r = 2'-OH (RNA)
Decide by normalised inhibition (eCFP-eYFP dual reporter): equal to or exceeding 60% means t, less means f.

Hi team, for sense rUrUrUrGrCrCrArArArCrUrGrGrCrGrCrGrCrAdTdT / antisense rUrGrCrGrCrGrCrCrArGrUrUrUrGrGrCrArArAdAdT , is the recorded normalised inhibition (eCFP-eYFP dual reporter) at or above 60%? f

Hi team, for sense rCrGrUrGrArArCrUrArCrArGrCrUrCrUrGrUrGdTdT / antisense rCrArCrArGrArGrCrUrGrUrArGrUrUrCrArCrGdCdA , is the recorded normalised inhibition (eCFP-eYFP dual reporter) at or above 60%? f

Hi team, for sense rArCrUrUrCrArCrUrArUrUrUrUrCrArUrCrArAdTdT / antisense rUrUrGrArUrGrArArArArUrArGrUrGrArArGrUdTdC , is the recorded normalised inhibition (eCFP-eYFP dual reporter) at or above 60%? t

Hi team, for sense rArGrUrCrGrGrUrGrGrUrUrGrUrGrArArGrArGdTdT / antisense rCrUrCrUrUrCrArCrArArCrCrArCrCrGrArCrUdTdG , is the recorded normalised inhibition (eCFP-eYFP dual reporter) at or above 60%? t

Hi team, for sense rUrCrUrUrGrCrGrGrGrUrArGrGrGrGrArCrGrUdTdT / antisense rArCrGrUrCrCrCrCrUrArCrCrCrGrCrArArGrAdTdG , is the recorded normalised inhibition (eCFP-eYFP dual reporter) at or above 60%? t

Hi team, for sense rUrUrCrArGrCrUrUrCrUrGrArUrCrArUrCrUrCdTdT / antisense rGrArGrArUrGrArUrCrArGrArArGrCrUrGrArAdCdT , is the recorded normalised inhibition (eCFP-eYFP dual reporter) at or above 60%? f
